target-under-test: recombinant full-length human prolyl endopeptidase (PREP) (Homo sapiens)
Construct: To recombinant full-length human prolyl endopeptidase (PREP, R&D-Systems, 4308-SE)
Sequence (P48147 1-710): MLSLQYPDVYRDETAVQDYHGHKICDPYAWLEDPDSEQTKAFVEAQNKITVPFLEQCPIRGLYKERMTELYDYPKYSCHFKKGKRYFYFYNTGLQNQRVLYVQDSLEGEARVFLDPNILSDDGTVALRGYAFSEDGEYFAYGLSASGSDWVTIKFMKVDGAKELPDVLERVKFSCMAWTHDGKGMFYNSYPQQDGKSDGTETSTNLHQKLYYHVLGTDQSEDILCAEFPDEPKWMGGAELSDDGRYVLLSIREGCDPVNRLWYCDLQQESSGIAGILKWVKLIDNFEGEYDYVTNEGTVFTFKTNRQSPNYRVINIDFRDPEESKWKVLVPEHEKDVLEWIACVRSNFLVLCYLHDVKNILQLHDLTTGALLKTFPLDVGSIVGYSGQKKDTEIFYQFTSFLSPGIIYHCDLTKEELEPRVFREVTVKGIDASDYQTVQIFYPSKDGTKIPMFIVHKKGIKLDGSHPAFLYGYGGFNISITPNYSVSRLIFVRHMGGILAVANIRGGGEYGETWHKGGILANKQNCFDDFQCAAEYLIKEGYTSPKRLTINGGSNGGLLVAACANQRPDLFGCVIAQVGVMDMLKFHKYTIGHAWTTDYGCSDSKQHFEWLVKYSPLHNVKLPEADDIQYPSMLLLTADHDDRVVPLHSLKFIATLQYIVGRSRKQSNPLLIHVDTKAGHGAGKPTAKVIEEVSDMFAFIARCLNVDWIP
assay-text: Biochemical human prolyl endopeptidase (PREP) assay with fluorescently labelled substrate
condition-details: substrate Z-Gly-Pro-AMC 50 μM, 32° C., 60 min; some as mean values from multiple independent determinations
pIC50: −log10 of the molar value.
observation-type: pIC50

Query: If you can, please state the reported pIC50 value of O=C(C1CC(C(F)(F)F)Cc2nn(Cc3ncc(F)cc3Cl)c(=O)n21)N1CCC(F)(F)C1 (single isomer, unassigned) [Example 576] .
Response: 8.06

Query: If you can, please state the reported pIC50 value of O=C([C@@H]1CCCc2nn(Cc3cncc(Br)c3)c(=O)n21)N1C[C@@H](F)[C@@H](F)C1 .
Response: 8.92

[I] Cc1cc(Cn2nc3n(c2=O)C(C(=O)N2CC[C@H](F)C2)CCC3)on1 (mixture of isomers)
[II] CC1Cc2nn(Cc3ccc(C(F)(F)F)nc3)c(=O)n2C(C(=O)N2C[C@@H](F)[C@@H](F)C2)C1 (mixture of isomers) [Example 336]
Query: // max by pIC50 over [ I , II ] Respond using the label that marks the chosen record.
Response: II
(II: 9.18, I: 8.47)

Cited source: patent US10722501B2
